Target: biotinylated (prokaryotic) IL-6 (Homo sapiens, UniProt P05231)
Sequence (P05231 30-212): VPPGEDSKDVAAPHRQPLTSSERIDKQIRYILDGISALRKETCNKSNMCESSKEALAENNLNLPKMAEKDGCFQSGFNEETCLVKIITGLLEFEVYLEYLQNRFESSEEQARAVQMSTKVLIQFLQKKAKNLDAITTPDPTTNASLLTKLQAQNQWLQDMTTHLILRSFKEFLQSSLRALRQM
Assay: Surface plasmon resonance (Biacore), biotinylated IL-6 captured on streptavidin sensor chip
Format: binding
Details: purified Fab
Assignment: determine reported ka for the given molecules.
Your answer is read as M⁻¹ s⁻¹, so omit the unit and give the number.

ka for 24D10: antagonistic IL-6-specific Fab clone, parental of 61H7 (antibody, listed as Lama glama, V domains shown) VH: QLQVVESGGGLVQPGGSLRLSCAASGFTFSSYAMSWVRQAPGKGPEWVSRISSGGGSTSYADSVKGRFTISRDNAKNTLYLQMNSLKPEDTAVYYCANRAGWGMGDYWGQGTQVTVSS VL: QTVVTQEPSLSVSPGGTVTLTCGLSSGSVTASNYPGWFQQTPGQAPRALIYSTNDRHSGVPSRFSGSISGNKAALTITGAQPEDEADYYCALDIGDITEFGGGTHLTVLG is 62700

ka for 24E9: antagonistic IL-6-specific Fab clone from immunized llama (antibody, listed as Lama glama, V domains shown) VH: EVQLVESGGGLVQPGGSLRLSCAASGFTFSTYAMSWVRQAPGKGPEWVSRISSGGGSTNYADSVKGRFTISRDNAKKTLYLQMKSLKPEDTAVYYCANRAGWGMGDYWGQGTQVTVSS VL: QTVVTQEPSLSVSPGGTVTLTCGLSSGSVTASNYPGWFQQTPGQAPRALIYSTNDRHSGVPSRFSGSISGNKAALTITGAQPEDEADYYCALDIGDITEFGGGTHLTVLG is 117000

ka for 29B11: antagonistic IL-6-specific Fab clone from immunized llama (antibody, listed as Lama glama, V domains shown) VH: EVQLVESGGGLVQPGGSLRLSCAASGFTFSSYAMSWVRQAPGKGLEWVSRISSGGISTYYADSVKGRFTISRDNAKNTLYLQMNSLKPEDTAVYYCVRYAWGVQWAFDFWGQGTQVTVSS VL: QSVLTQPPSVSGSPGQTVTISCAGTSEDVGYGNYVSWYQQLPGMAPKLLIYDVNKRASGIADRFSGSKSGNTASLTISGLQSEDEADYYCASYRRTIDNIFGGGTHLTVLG is 130000

ka for 24C9: antagonistic IL-6-specific Fab clone from immunized llama (antibody, listed as Lama glama, V domains shown) VH: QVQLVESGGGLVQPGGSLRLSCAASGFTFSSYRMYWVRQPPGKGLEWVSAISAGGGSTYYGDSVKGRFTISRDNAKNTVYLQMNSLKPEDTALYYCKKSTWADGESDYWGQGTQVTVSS VL: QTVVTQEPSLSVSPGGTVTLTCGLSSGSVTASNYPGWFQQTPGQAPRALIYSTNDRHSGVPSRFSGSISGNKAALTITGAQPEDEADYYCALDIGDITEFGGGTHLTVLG is 133000

ka for 18F8: antagonistic IL-6-specific Fab clone from immunized llama (antibody, listed as Lama glama, V domains shown) VH: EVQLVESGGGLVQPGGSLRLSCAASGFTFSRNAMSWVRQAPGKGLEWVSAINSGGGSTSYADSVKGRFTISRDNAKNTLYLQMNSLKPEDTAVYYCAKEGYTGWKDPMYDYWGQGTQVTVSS VL: QSALTQPSALSVTLGQTAKITCQGGSLGSRYAHWYQQKPGQAPVLVIYDDDSRPSGIPERFSGSSSGGRATLTISGAQAEDEGDYYCQSADTSEHIVFGGGTHLTVLG is 48400

ka for 20A4: antagonistic IL-6-specific Fab clone, parental of 68F2 (antibody, listed as Lama glama, V domains shown) VH: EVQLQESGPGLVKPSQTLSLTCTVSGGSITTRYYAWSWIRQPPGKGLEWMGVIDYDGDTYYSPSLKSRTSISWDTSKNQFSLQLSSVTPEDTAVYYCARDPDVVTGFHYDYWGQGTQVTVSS VL: ALNFMLTQPPSVSGTLGKTVTISCAGTSSDIGGYNYVSWYQQLPGTAPKLLIHRVSTRASGIPDRFSGSKSGNTASLTISGLRSEDEANYYCASYRNFNNAVFGGGTQLTVLG is 288000
